SYSTEM NAME: MAGL (Homo sapiens (Human), UniProt Q99685)
Sequence (Q99685 whole entry): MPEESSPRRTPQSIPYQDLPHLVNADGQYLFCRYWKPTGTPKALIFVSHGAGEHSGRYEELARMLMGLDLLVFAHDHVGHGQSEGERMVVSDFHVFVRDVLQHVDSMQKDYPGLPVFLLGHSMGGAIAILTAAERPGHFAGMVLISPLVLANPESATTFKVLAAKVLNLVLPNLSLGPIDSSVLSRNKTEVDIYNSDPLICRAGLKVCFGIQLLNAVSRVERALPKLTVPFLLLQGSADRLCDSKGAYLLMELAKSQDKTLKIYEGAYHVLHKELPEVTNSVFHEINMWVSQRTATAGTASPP
PROCEDURE TEXT: In vitro competitive activity-based protein profiling, human proteomes (prefrontal cortex or PC3 cell membrane fractions)
Assay type: biochemical
CONDITION NOTES: 1 μM, human proteome; read-out: MAGL % inh. 1 μM (human)
Each entry below carries its recorded inhibition at 1 µM.

COMPOUND: CS(=O)(=O)Nc1ccn(C(=O)N2CCC(Oc3ccc(C(F)(F)F)cc3C(=O)N3CCCC3)CC2)n1 [Example 101]
EXPERIMENTAL VALUE: > 75%
//
COMPOUND: CS(=O)(=O)Nc1ccn(C(=O)N2CCC(Oc3ccc(C(F)(F)F)c(-c4nnco4)c3)CC2)n1 [Example 5]
EXPERIMENTAL VALUE: > 75%

# ---- query compound ----
Provide measured inhibition at 1 µM value, entry: CC(=O)Nc1ccn(C(=O)N2CCC(C)(N(C)Cc3ccc(C(N)=O)c(C(F)(F)F)c3)CC2)n1 [Example 130]
> 75%

----------
SYSTEM NAME: MAGL (Mus musculus (Mouse), UniProt O35678)
Sequence (O35678 whole entry): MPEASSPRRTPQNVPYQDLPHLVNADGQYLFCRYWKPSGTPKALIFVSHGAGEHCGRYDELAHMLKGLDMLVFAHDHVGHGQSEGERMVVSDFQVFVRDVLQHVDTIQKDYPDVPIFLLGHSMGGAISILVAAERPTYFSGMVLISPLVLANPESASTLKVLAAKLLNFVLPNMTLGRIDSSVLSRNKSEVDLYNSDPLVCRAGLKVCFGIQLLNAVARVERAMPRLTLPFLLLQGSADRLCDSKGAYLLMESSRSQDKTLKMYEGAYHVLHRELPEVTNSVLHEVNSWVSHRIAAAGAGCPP
PROCEDURE TEXT: In vitro competitive activity-based protein profiling, mouse proteomes (brain membrane fraction or cell lysates)
Format: biochemical
CONDITION NOTES: mouse proteome, read-out: MAGL % inh. 1 μM (mouse)
ASSAY READOUT: inhibition at 1 µM

// known answers, use as guide
COMPOUND: CS(=O)(=O)Nc1ccn(C(=O)N2CCN(Cc3ccc(Cl)c(N4CC[C@@H](F)C4)c3)CC2)n1
EXPERIMENTAL VALUE: > 75%
--
COMPOUND: CS(=O)(=O)Nc1ccn(C(=O)N2C[C@H]3C[C@H](OCc4cccc(C(F)(F)F)c4)C[C@H]3C2)n1
EXPERIMENTAL VALUE: > 75%
--
COMPOUND: CS(=O)(=O)Nc1ccn(C(=O)N2CCC3(CCN(Cc4ccc(C(F)(F)F)c(N5CCCC5)c4)C3)CC2)n1
EXPERIMENTAL VALUE: > 75%
--
COMPOUND: CC(=O)Nc1ccn(C(=O)N2CC3CN(Cc4ccc(N5CCCC5)cc4Cl)CC3C2)n1 (centres unmarked)
EXPERIMENTAL VALUE: > 75%

# context switch: different compound, same inhibition at 1 µM
Hello, please tell me recorded inhibition at 1 µM for this one: `Cc1nc(Cl)ccc1CN1CCN(C(=O)n2ccc(NS(C)(=O)=O)n2)CC1`
50 to 75%

----------
SYSTEM NAME: UniProtKB O35678
PROCEDURE TEXT: In vitro competitive activity-based protein profiling, mouse proteomes (brain membrane fraction or cell lysates)
Assay type: biochemical
CONDITION NOTES: mouse proteome, read-out: MAGL % inh. 1 μM (mouse)
Protocol: In Vitro Competitive Activity-Based Protein Profiling. Proteomes (mouse brain membrane fraction or cell lysates for mouse assays; human prefrontal cortex or PC3 cell membrane fractions for human assays) (50 μL, 1.0 or 2.0 mg/mL total protein concentration) were preincubated with varying concentrations of inhibitors at 37° C. […] Following gel imaging, serine hydrolase activity was determined by measuring fluorescent intensity of gel bands corresponding to MAGL and FAAH using ImageJ 1.43u software.
ASSAY READOUT: inhibition at 1 µM

Reference set, count: 5
MOLECULE: CS(=O)(=O)Nc1ccn(C(=O)N2CCC3(CCN(Cc4ccc(N5CCCC5)c(C(F)(F)F)c4)C3)CC2)n1 [Example 72]
inhibition at 1 µM: 25 to 50%
//
MOLECULE: CC(=O)Nc1ccn(C(=O)N2CCC3(CCCN3C(=O)c3ccc(C#N)c(C)c3)CC2)n1 [Example 85]
inhibition at 1 µM: > 75%
//
MOLECULE: CC(=O)Nc1ccn(C(=O)N2CC3CN(Cc4cc(Cl)cc(C(F)(F)F)c4)CC3C2)n1 (stereo not drawn) [Example 146]
inhibition at 1 µM: > 75%
//
MOLECULE: CN(Cc1ccc(Cl)cc1N1CCOCC1)C1(C)CCN(C(=O)n2ccc(NS(C)(=O)=O)n2)CC1 [Example 198]
inhibition at 1 µM: 50 to 75%
//
MOLECULE: CS(=O)(=O)Nc1ccn(C(=O)N2CCC3(CCN(Cc4cc(Cl)ccc4C(F)(F)F)C3)CC2)n1 [Example 46]
inhibition at 1 µM: 0 to 25%

// switching to the query molecule
Consider the molecule CC(=O)Nc1ccn(C(=O)N2CC3CN(Cc4ccc(C(N)=O)c(C(F)(F)F)c4)CC3C2)n1 (stereo not drawn) [Example 124] . State its measured inhibition at 1 µM.
> 75%

----------
SYSTEM NAME: FAAH (Mus musculus (Mouse))
Sequence (O08914 whole entry): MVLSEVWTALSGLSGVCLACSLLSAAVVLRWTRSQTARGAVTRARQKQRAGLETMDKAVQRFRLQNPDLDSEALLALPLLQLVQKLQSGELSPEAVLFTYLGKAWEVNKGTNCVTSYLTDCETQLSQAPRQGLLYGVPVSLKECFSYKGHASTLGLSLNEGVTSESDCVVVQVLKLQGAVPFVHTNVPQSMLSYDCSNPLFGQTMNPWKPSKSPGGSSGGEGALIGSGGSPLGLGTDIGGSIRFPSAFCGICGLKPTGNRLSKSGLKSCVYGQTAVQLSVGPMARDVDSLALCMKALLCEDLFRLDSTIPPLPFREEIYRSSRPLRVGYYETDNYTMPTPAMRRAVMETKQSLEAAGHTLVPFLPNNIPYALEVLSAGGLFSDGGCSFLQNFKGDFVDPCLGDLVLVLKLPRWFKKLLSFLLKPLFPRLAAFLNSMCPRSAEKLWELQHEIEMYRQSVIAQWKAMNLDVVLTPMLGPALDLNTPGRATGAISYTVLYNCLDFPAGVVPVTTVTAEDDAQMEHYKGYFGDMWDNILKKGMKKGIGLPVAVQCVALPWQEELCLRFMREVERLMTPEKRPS
PROCEDURE TEXT: In vitro competitive activity-based protein profiling, mouse proteomes (brain membrane fraction or cell lysates)
Type: biochemical
CONDITION NOTES: mouse proteome, read-out: FAAH % inh. 1 μM (mouse)
ASSAY READOUT: inhibition at 1 µM

Observe how each entry below is paired with its result.
STRUCTURE AS SMILES: CS(=O)(=O)Nc1ccn(C(=O)N2CCC3(CCCN3Cc3cc4ccc(C(F)(F)F)cc4s3)CC2)n1
SYSTEM NAME: FAAH (Mus musculus (Mouse))
EXPERIMENTAL VALUE: 0 to 25%

STRUCTURE AS SMILES: CS(=O)(=O)Nc1ccn(C(=O)N2CCC3(CCN(Cc4ccc(Cl)cc4)C3)CC2)n1
SYSTEM NAME: FAAH (Mus musculus (Mouse))
EXPERIMENTAL VALUE: 0 to 25%

STRUCTURE AS SMILES: CN(Cc1ccc(C(F)(F)F)cc1N1CCCC1)C1(C)CCN(C(=O)n2ccc(NS(C)(=O)=O)n2)CC1
SYSTEM NAME: FAAH (Mus musculus (Mouse))
EXPERIMENTAL VALUE: 0 to 25%

STRUCTURE AS SMILES: CC(=O)Nc1ccn(C(=O)N2CCC3(CCN(Cc4ccc(N5CCCC5)cc4C(F)(F)F)C3)CC2)n1
SYSTEM NAME: FAAH (Mus musculus (Mouse))
EXPERIMENTAL VALUE: > 75%

STRUCTURE AS SMILES: CS(=O)(=O)Nc1ccn(C(=O)N2CCN(Cc3ccc(Cl)c(N4CCC5(CCOCC5)C4)c3)CC2)n1
SYSTEM NAME: FAAH (Mus musculus (Mouse))
EXPERIMENTAL VALUE: 0 to 25%

STRUCTURE AS SMILES: CN(Cc1ccc(N2CCCC2)cc1C(F)(F)F)[C@H]1C[C@@H]2CN(C(=O)n3ccc(NS(C)(=O)=O)n3)C[C@@H]2C1
SYSTEM NAME: FAAH (Mus musculus (Mouse))
EXPERIMENTAL VALUE: > 75%

# input for lookup
Retrieve inhibition at 1 µM measured for `C[C@H]1CN(C(=O)n2ccc(NS(C)(=O)=O)n2)CCN1Cc1cnc(Cl)c(N2CCC(F)CC2)c1` and print it.
0 to 25%

----------
SYSTEM NAME: FAAH (Homo sapiens (Human))
Sequence (O00519 whole entry): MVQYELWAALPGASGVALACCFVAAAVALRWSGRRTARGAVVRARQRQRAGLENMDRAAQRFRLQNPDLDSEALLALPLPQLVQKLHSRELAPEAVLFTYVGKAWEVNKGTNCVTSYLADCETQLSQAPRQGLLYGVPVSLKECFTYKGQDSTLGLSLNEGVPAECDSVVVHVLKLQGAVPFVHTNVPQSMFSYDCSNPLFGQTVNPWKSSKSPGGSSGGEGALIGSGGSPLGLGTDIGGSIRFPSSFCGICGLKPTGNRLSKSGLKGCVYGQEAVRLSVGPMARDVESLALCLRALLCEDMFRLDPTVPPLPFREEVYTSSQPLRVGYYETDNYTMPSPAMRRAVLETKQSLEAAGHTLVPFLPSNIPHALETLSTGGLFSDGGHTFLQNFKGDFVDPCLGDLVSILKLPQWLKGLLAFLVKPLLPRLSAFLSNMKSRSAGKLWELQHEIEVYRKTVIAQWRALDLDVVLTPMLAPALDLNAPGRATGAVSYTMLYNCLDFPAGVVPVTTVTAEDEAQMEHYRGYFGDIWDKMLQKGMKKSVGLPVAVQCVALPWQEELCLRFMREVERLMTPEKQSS
PROCEDURE TEXT: In vitro competitive activity-based protein profiling, human proteomes (prefrontal cortex or PC3 cell membrane fractions)
Format: biochemical
CONDITION NOTES: human proteome
Protocol: In Vitro Competitive Activity-Based Protein Profiling. Proteomes (mouse brain membrane fraction or cell lysates for mouse assays; human prefrontal cortex or PC3 cell membrane fractions for human assays) (50 μL, 1.0 or 2.0 mg/mL total protein concentration) were preincubated with varying concentrations of inhibitors at 37° C. […] Following gel imaging, serine hydrolase activity was determined by measuring fluorescent intensity of gel bands corresponding to MAGL and FAAH using ImageJ 1.43u software.
ASSAY READOUT: IC50

Consider the following illustrative entries.
STRUCTURE AS SMILES: CC(=O)Nc1ccn(C(=O)N2CCC(C)(N(C)Cc3cc(C(F)(F)F)cc(C4(C(=O)O)CCCC4)c3)CC2)n1
IC50: 1 to 10 µM
--
STRUCTURE AS SMILES: CN(Cc1cc(Cl)ccc1C(F)(F)F)[C@H]1C[C@@H]2CN(C(=O)n3ccc(NS(C)(=O)=O)n3)C[C@@H]2C1
IC50: 0.1 to 1 µM
--
STRUCTURE AS SMILES: C[C@H](c1ccc(Cl)c(N2CCC(F)CC2)c1)N1CCN(C(=O)n2ccc(NS(C)(=O)=O)n2)CC1
IC50: 1 to 10 µM

Answer with the recorded IC50 of `CS(=O)(=O)Nc1ccn(C(=O)N2CCC3(CCN(Cc4ccc(Cl)cc4N4CCCC4)C3)CC2)n1` only.
1 to 10 µM

Write down IC50 measured for item `CS(=O)(=O)Nc1ccn(C(=O)N2CCN(Cc3cc4ccc(C(F)(F)F)cc4s3)CC2)n1`
1 to 10 µM

----------
SYSTEM NAME: FAAH (Homo sapiens (Human))
PROCEDURE TEXT: In vitro competitive activity-based protein profiling, human proteomes (prefrontal cortex or PC3 cell membrane fractions)
Format: biochemical
CONDITION NOTES: 1 μM, human proteome; read-out: FAAH % inh. 1 μM (human)
Method: In Vitro Competitive Activity-Based Protein Profiling. Proteomes (mouse brain membrane fraction or cell lysates for mouse assays; human prefrontal cortex or PC3 cell membrane fractions for human assays) (50 μL, 1.0 or 2.0 mg/mL total protein concentration) were preincubated with varying concentrations of inhibitors at 37° C. […] Following gel imaging, serine hydrolase activity was determined by measuring fluorescent intensity of gel bands corresponding to MAGL and FAAH using ImageJ 1.43u software.
Measured inhibition at 1 µM of individual entries

Example molecules with recorded inhibition at 1 µM:
MOLECULE: CC(C)OC1CCN(c2cc(CN3CCN(C(=O)n4ccc(NS(C)(=O)=O)n4)C[C@@H]3C)ccc2Cl)CC1 [Example 32]
inhibition at 1 µM: 0 to 25%
--
MOLECULE: CS(=O)(=O)Nc1ccn(C(=O)N2CCC3(CCN(Cc4ccc(C(F)(F)F)cc4N4C5CCC4COC5)C3)CC2)n1 [Example 74]
inhibition at 1 µM: 0 to 25%
--
MOLECULE: CS(=O)(=O)Nc1ccn(C(=O)N2CCN(Cc3ncccc3N3CCCC3)CC2)n1 [Example 86]
inhibition at 1 µM: 0 to 25%

From here, focus on the item given below.
Read the entry CS(=O)(=O)Nc1ccn(C(=O)N2CCN(Cc3ccc(Cl)c(OC4CCCC4)c3)CC2)n1 [Example 111] and write its reported inhibition at 1 µM.
0 to 25%
